Below, IC50 values reported for Autotaxin (Homo sapiens, UniProt Q13822) across several publications.
So basically, if IC50 comes in under 0.01 µM it's label 1, and if it's 0.01 µM or more it's label 0.

MOLECULE: Cc1cc(OCc2n[nH]c(=O)n2C)c(-c2cc(C(N)=O)ccc2OC(F)(F)F)cc1Cl
ASSIGNED LABEL: label 0
//
MOLECULE: O=C(OCc1ccccc1)N1CCc2cc(C(=O)N3CCc4[nH]nnc4C3)nn2CC1
ASSIGNED LABEL: label 0
//
MOLECULE: O=C(OCc1ccc(Cl)c(F)c1)N1CCC2(CC1)CN(C(=O)c1ccc3[nH]nnc3c1)C2
ASSIGNED LABEL: label 0
//
MOLECULE: O=C(OCc1ccc(OC(F)F)c(F)c1)N1C[C@@H]2CN(C(=O)c3ccc4[nH]nnc4c3)C[C@H]2C1
ASSIGNED LABEL: label 1

Bench note: check whether CC(C)c1cc2c(cc1OCC(=O)N1CC[C@@H]3CN(C(=O)c4ccc5[nH]nnc5c4)C[C@@H]3CC1)C(C)(C)CC2 shows IC50 below 0.01 µM
label 1

Bench note: check whether Cn1c(COc2cc(Cl)c(C#N)cc2-c2cc(OC(F)(F)F)ccc2F)n[nH]c1=O shows IC50 below 0.01 µM
label 1

Bench note: check whether CCc1nc2ccc(-c3cnc(CC(=O)N4CC(CO)C4)cn3)cn2c1N(C)c1nc(-c2ccc(F)cc2)c(C#N)s1 shows IC50 below 0.01 µM
label 0

Bench note: check whether O=C(OCc1cc(Cl)cc(Cl)c1)N1C[C@@H]2CCN(C(=O)c3ccc4[nH]nnc4c3)C[C@@H]2C1 (relative stereo) shows IC50 below 0.01 µM
label 0

Bench note: check whether O=C(/C=C/c1ccc(OC(F)(F)F)cc1)N1CC[C@@H]2CN(C(=O)c3ccc4[nH]c(=O)oc4c3)C[C@@H]2CC1 shows IC50 below 0.01 µM
label 1

Bench note: check whether Cc1cc(OC(F)(F)F)ccc1COC(=O)N1CCC2(CC1)CN(C(=O)C1CCc3[nH]nnc3C1)C2 (stereo not drawn) shows IC50 below 0.01 µM
label 1
